Assign inhibition to each entry below.
Molecular target: Casein kinase I isoform gamma-2 (Homo sapiens) (UniProt P78368)
Sequence (P78368 whole entry, looked up, canonical isoform): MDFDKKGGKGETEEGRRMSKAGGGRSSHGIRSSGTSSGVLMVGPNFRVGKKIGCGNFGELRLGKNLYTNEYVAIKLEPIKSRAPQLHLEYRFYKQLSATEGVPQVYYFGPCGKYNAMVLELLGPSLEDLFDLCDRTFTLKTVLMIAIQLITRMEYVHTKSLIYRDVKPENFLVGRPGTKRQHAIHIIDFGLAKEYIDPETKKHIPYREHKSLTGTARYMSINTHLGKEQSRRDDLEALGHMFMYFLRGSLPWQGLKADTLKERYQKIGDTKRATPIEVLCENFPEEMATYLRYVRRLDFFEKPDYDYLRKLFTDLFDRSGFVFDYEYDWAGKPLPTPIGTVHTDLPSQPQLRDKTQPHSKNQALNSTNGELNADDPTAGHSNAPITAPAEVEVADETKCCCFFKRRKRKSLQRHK
Details: at 1 µM
Description: GSK_PKIS: CK1-g2 mean inhibition at 1 uM [Nanosyn]
Answers are plain numbers, in %.

Give one value of inhibition per listed molecule.
1. Cc1cc(-c2ccco2)cc(C)c1/C=C/c1cncc(-c2nn[nH]n2)c1
2. COc1cc(C=NNc2ncnc3c2cnn3Cc2ccccc2)ccc1O
3. COc1cc2c(cc1Nc1nc(Nc3ccsc3C(N)=O)c3cc[nH]c3n1)N(C(=O)CN(C)C)CCC2
4. COc1cccc(-n2ncc3c(N/N=C/c4ccncc4)ncnc32)c1
5. NS(=O)(=O)c1ccc(N/C=C2\C(=O)Nc3ccc4ncsc4c32)cc1

1.08
-3.09
-7.97
9.79
11.1

Hi! Can you tell me inhibition for each of these molecules?
1. COc1cccc(COc2cc(-n3cnc4ccccc43)sc2C(N)=O)c1
2. CCn1c(-c2nonc2N)nc2c(C#CC(C)(C)O)nc(O[C@@H](CN)c3ccccc3)cc21

1.17
4.43

Go through the list and state inhibition for each entry.
1. CCn1c(-c2nonc2N)nc2c(C#CC(C)(C)O)ncc(OC[C@@H]3CCCN3)c21
2. Fc1ccc(-c2ncn(C3CCNCC3)c2-c2ccnc(Oc3ccccc3)n2)cc1

2.18
2.3
